Data credit: ChEMBL document CHEMBL3751687

# Tested On: Extracellular calcium-sensing receptor (Rattus norvegicus)
# Assay Details: Agonist activity at rat brain CaSR expressed in CHO cells assessed as inositol phosphate production at 3 uM in presence of 3 mM extracellular Ca2+ by IP-one assay
# Format: functional, cell-based
Metric Name: Activity (%)
// return numeric value only (unit: %, not printed)

Activity for C[C@@H](NCc1cc2ccccc2[nH]1)c1cccc2ccccc12 [CALINDOL] is 83

Activity for "C[C@@H](NCc1cc2cccc(O)c2[nH]1)c1cccc2ccccc12" is 55

Activity for "COc1cc2cc(CN[C@H](C)c3cccc4ccccc34)[nH]c2c(OC)c1OC" is 40

Activity for "C[C@@H](NCc1cc2cc(S(C)(=O)=O)ccc2[nH]1)c1cccc2ccccc12" is 54

* * *

# Tested On: Extracellular calcium-sensing receptor (Rattus norvegicus) (UniProt P48442)
# Sequence (P48442 whole entry): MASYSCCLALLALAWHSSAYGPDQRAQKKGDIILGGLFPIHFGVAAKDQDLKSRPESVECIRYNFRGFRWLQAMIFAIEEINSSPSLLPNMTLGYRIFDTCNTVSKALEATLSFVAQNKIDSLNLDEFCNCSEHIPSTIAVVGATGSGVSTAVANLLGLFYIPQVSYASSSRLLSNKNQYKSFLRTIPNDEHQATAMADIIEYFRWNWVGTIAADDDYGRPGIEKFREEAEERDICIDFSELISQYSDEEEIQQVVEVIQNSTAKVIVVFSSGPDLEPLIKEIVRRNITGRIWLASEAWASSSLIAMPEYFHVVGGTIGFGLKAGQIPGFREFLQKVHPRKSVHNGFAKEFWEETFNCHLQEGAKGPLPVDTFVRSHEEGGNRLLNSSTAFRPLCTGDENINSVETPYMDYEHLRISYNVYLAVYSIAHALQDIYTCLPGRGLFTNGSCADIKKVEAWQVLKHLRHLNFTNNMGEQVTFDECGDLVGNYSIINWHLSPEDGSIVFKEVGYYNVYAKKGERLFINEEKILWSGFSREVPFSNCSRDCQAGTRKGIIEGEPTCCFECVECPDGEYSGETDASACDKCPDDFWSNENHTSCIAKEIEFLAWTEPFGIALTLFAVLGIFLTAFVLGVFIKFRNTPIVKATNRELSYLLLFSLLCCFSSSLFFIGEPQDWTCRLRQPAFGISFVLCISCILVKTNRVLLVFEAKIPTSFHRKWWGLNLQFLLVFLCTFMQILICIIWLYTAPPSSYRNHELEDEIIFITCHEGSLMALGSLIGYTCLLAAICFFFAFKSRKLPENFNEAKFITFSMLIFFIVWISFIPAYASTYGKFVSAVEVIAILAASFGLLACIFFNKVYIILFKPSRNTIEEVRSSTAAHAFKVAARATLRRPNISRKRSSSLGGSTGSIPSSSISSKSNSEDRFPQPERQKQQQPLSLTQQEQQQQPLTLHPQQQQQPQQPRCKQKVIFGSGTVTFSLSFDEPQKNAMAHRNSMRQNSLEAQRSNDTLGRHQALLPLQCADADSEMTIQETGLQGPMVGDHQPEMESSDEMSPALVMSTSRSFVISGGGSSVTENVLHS
# Assay Details: Agonist activity at rat brain CaSR expressed in CHO cells assessed as inositol phosphate production at 3 uM in presence of 3 mM extracellular Ca2+ by IP-one assay
# Assay type: functional, cell-based
Listing of entries alongside the reported Activity.
// return numeric value only (unit: %, not printed)

Worked cases, answers included:
>  <Compound>
C[C@@H](NCc1cc2cc([N+](=O)[O-])ccc2[nH]1)c1cccc2ccccc12

>  <Activity [%]>
30

$$$$
>  <Compound>
CC(NCc1cc2ccccc2[nH]1)c1ccc(-c2ccccc2)cc1 (racemic)

>  <Activity [%]>
2

$$$$
>  <Compound>
C[C@@H](NCc1cc2cc(O)ccc2[nH]1)c1cccc2ccccc12

>  <Activity [%]>
92

$$$$
>  <Compound>
C[C@@H](NCc1cc2ccccc2[nH]1)c1ccc(Br)cc1

>  <Activity [%]>
26

$$$$
>  <Compound>
C[C@@H](NCc1cc2cc(OCc3ccccc3)ccc2[nH]1)c1cccc2ccccc12

>  <Activity [%]>
23

$$$$

Activity for "C[C@@H](NCc1cc2c(-c3ccccc3)cccc2[nH]1)c1cccc2ccccc12" is 85

Activity for "C[C@@H](NCc1cc2cccc([N+](=O)[O-])c2[nH]1)c1cccc2ccccc12" is 102

Activity for CC(NCc1cc2ccccc2[nH]1)c1cccc(Br)c1 (racemic) is 49
